Tested on: RXRa homodimer (NR concentration 180 nM)
Test: PBM binding z-score (relative to random genomic background probes); higher = stronger binding; sequences stand for … in GC…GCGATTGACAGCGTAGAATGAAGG
readout-label: PBM binding z-score

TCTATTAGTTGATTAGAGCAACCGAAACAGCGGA = 0.293
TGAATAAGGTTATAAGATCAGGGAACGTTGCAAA = 1.89
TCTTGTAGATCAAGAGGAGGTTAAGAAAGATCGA = 0.72
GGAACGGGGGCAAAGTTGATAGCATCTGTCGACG = 3.61
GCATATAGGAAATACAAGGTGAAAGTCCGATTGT = 0.281
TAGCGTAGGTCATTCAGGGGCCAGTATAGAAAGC = 3.93
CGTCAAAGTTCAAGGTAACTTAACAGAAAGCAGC = 4.36
GCTAGCAGGCCATTGGGGTCACTCAATGACGGGC = 4.7
ACTAGCAGGCCAAGCGTCACTCAAGATTAGTCCG = -0.281
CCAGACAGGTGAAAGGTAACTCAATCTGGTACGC = 2.39
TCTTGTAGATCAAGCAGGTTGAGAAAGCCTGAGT = -0.0549
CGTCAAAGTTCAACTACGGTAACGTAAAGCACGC = 5.18
